tested.on: the molecule itself
procedure.text: cryo-EM structure
Answer each item with its documented stoichiometry N.
Give bare numbers.

These solved cases illustrate the format of a correct answer.
- protein: "PrgK (natural protein, PrgK, basal body ring protein of the S. enterica sv; Typhimurium injectisome; also called PrgK_(1-24); copies: 24) CKDKDLLKGLDQEQANEVIAVLQMHNIEANKIDSGKLGYSITVAEPDFTAAVYWIKTYQLPPRPRVEIAQMFPADSLVSSPRAEKARLYSAIEQRLEQSLQTMEGVLSARVHISYDIDAGENGRPPKPVHLSALAVYERGSPLAHQISDIKRFLKNSFADVDYDNISVVLSERSDAQLQAPGTPVKRNSFATSWIVLIILLSVMSAGFGVWYYKNHYARNKKGITADDKAKSSNE"
  quantitative.readout: 24
- protein: "PrgH (natural protein, PrgH, basal body ring protein of the S. enterica sv; Typhimurium injectisome; also called PrgH_(1-24); copies: 24) METSKEKTITSPGPYIVRLLNSSLNGCEFPLLTGRTLFVVGQSDALTASGQLPDIPADSFFIPLDHGGVNFEIQVDTDATEIILHELKEGNSESRSVQLNTPIQVGELLILIRPESEPWVPEQPEKLETSAKKNEPRFKNGIVAALAGFFILGIGTVGTLWILNSPQRQAAELDSLLGQEKERFQVLPGRDKMLYVAAQNERDTLWARQVLARGDYDKNARVINENEENKRISIWLDTYYPQLAYYRIHFDEPRKPVFWLSRQRNTMSKKELEVLSQKLRALMPYADSVNITLMDDVTAAGQAEAGLKQQALPYSRRNHKGGVTFVIQGALDDVEILRARQFVDSYYRTWGGRYVQFAIELKDDWLKGRSFQYGAEGYIKMSPGHWYFPSPL"
  quantitative.readout: 24

Let us move to another entry and its stoichiometry N.
[in] Field request: stoichiometry N | item: SpaP (natural protein, SpaP, export apparatus protein of the S. enterica sv; Typhimurium injectisome; Five copies in the export apparatus (SpaP : Q : R 5 : 4 : 1); also called SpaP1-5; SpaP pentamer) MGNDISLIALLAFSTLLPFIIASGTCFVKFSIVFVMVRNALGLQQIPSNMTLNGVALLLSMFVMWPIMHDAYVYFEDEDVTFNDISSLSKHVDEGLDGYRDYLIKYSDRELVQFFENAQLKRQYGEETETVKRDKDEIEKPSIFALLPAYALSEIKSAFKIGFYLYLPFVVVDLVVSSVLLALGMMMMSPVTISTPIKLVLFVALDGWTLLSKGLILQYMDIAT
[out] 5

The reported numbers originate from paper PMC7943601.
